# test.name: qHTS assay to identify small molecule agonists of the farnesoid-X-receptor (FXR) signaling pathway - cell viability counter screen (AID 743218); also: nearly all actives have a fitted effect of over 45% in size
# study.conditions: FXR-bla HEK293T viability, CellTiter-Glo luminescence, 16 h; series mostly up to 62.6 µM
Results filed as inconclusive are left out. Activity calls are given as the source filed them. Calls follow the shape of the dose curve; as a rule, active = well fitted cell-killing curve with a large enough effect in the repeat runs; inconclusive = weak or mixed curves, or effect the other way; inactive = no such curve, though single readings can be large or run the other way.
Outcome field: choose from active, inactive

Input: Could you please tell me the result logged for CC1=C(Br)C(=O)C(Br)=C/C1=C(/c1ccccc1S(=O)(=O)O)c1cc(Br)c(O)c(Br)c1C in this assay?
Output: inactive

Input: Also need O=C1CCCCCCCCCCOCCCCO1 , thanks.
Output: inactive

Input: Input COc1cc(C(=O)NC2CCN(C)CC2)ccc1Nc1ncc2c(n1)N(C1CCCC1)CC(F)(F)C(=O)N2C
Output: active

Input: Would you kindly repeat that for CC(C)C=O ?
Output: inactive

Input: Try the compound OCCN1CCN(CCCN2c3ccccc3Sc3ccc(Cl)cc32)CC1
Output: active

Input: What would you report for CCOC(=O)/C=C/C(=O)OCC ?
Output: inactive

Input: And CC(C)Nc1cccnc1N1CCN(C(=O)c2cc3cc(NS(C)(=O)=O)ccc3[nH]2)CC1 ?
Output: inactive

Input: Now try O=C1NCCN1CCO .
Output: inactive

Input: Follow-up item: OC1(c2ccccc2)CCNCC1
Output: inactive

Input: Cool, now O=c1cc(-c2ccccc2)oc2ccc3ccccc3c12
Output: active

Input: Next compound up: CCOC(=O)c1ccc(I)cc1
Output: inactive

Input: Repeat for the following compound: N#[N+]c1ccc2c(S(=O)(=O)[O-])cccc2c1O
Output: inactive

Data origin, for the record: PubChem BioAssay (Tox21)
